System: OV90
experimentalDetails: Primary qHTS to identify gynecologic anti-cancer compounds using libraries of approved drugs and bioactive compounds (AID 1345084); note: nearly all actives have a fitted effect of over 55% in size; note: potency is the fitted concentration of half-maximal effect
reportedConditions: Gynecologic cancer cell panel viability, ATPlite luminescence, 48 h; series mostly up to 57.5 µM
Records with an inconclusive call do not appear. Active and inactive are the calls of the source. Calls come from the whole dose curve; as a rule, active = well fitted cell-killing curve with a large enough effect; inconclusive = small, poorly fitted or top-dose-only effect, or effect the other way; inactive = flat fitted curve, though single readings scatter.
testReadout: Potency

{"compound": "CCOc1ccc(Nc2nc(-c3c(C)nc4ccccn34)cs2)cc1", "recordedMeasurement": "1.41 µM (active)"}
{"compound": "COCCOC(=O)C1=C(C)NC2=C(C(=O)CC(c3ccccc3OC)C2)C1c1cccc(O)c1 (centres undefined)", "recordedMeasurement": "inactive"}
{"compound": "O=C(NCc1ccccc1)c1csc(Nc2ccncn2)n1", "recordedMeasurement": "inactive"}
{"compound": "C[C@@H](O)[C@H]1C(=O)N2C(C(=O)O)=C(S[C@@H]3CN[C@H](C(=O)N(C)C)C3)[C@H](C)[C@H]12", "recordedMeasurement": "inactive"}
{"compound": "Clc1ccc(Cn2c(CN3CCCC3)nc3ccccc32)cc1", "recordedMeasurement": "inactive"}
{"compound": "CC(C)[C@H](CO)Nc1nc(Nc2ccc(C(=O)O)c(Cl)c2)c2ncn(C(C)C)c2n1", "recordedMeasurement": "inactive"}
{"compound": "O=C(NC1CCOCC1)c1ccc(-c2cc(-c3cn[nH]c3-c3ccccn3)ccn2)cc1", "recordedMeasurement": "inactive"}
{"compound": "O=C(NCCN1CCOCC1)c1ccc(Cl)cc1", "recordedMeasurement": "inactive"}
{"compound": "Cc1c(NC(=O)c2ccc(C(C)(C)C)cc2)cccc1-c1cn(C)c(=O)c(Nc2ccc(C(=O)N3CCOCC3)cc2)n1", "recordedMeasurement": "inactive"}
{"compound": "O=C(O)CCc1nc(-c2ccccc2)c(-c2ccccc2)o1", "recordedMeasurement": "inactive"}
{"compound": "COc1ccc2cccc(CCNC(C)=O)c2c1", "recordedMeasurement": "inactive"}
{"compound": "CN(C[C@@H]1COCCO1)S(=O)(=O)Nc1ccc2ccc3ncc(-c4cnn(C)c4)cc3c(=O)c2c1", "recordedMeasurement": "inactive"}
{"compound": "C=C1C(=O)[C@@]23C(CC[C@@H]1[C@H]2O)[C@@]12CO[C@]3(O)[C@@H](O)[C@@H]1C(C)(C)CC[C@@H]2O (some centres undefined)", "recordedMeasurement": "inactive"}
{"compound": "CC(C)(C)OC(=O)N[C@H]1CCCCCC=C[C@@H]2C[C@@]2(C(=O)NS(=O)(=O)C2CC2)NC(=O)[C@@H]2C[C@@H](OC(=O)N3Cc4cccc(F)c4C3)CN2C1=O", "recordedMeasurement": "inactive"}
{"compound": "COc1ccc2cc(-c3nc(-c4ccc(S(C)=O)cc4)[nH]c3-c3ccncc3)ccc2c1 (centres undefined)", "recordedMeasurement": "inactive"}
{"compound": "CC(=O)CCCCn1c(=O)c2c(ncn2C)n(C)c1=O", "recordedMeasurement": "inactive"}
{"compound": "CC(C)C(=O)Nc1ncc(-c2cc(C(F)F)nn2-c2c(Cl)cccc2Cl)s1", "recordedMeasurement": "inactive"}
{"compound": "COc1ccc(C2CC(c3ccccc3)=NN2c2ccc(S(N)(=O)=O)cc2)cc1 (centres undefined)", "recordedMeasurement": "inactive"}
{"compound": "CC(C)(C)c1cc(C(=O)O)c(NC(=O)Nc2ccc3[nH]ncc3c2)s1", "recordedMeasurement": "inactive"}

---

experimentalDetails: Quantitative High-Throughput drug screen in 47 multiple myeloma cell lines against the NCATS MIPE library collection: Delta47_JCRB cell viability assay (AID 1918925; note: nearly all actives have a fitted effect of over 45% in size)
reportedConditions: Delta47 myeloma viability, CellTiter-Glo ATP, 48 h; series mostly up to 45.8 µM
Results filed as inconclusive are left out. Activity calls are given as the source filed them. The call rests on the fitted dose curve; in most records, active means well fitted cell-killing curve with a large enough effect; inconclusive means small, poorly fitted or top-dose-only effect, or effect the other way; inactive means no such curve, though single readings can be large or run the other way.
Outcomes: 1 = active, -1 = inactive

{"molecule": "CN1[C@@H]2CCC[C@@H]1CC(NC(=O)c1nn(C)c3ccccc13)C2 (some centres undefined)", "answerLabel": -1}
{"molecule": "COc1cc(O)c2c(c1)C(=O)c1cc(C)cc(O)c1C2=O", "answerLabel": -1}
{"molecule": "Cc1ccc(C(=O)Nc2cccc(C(F)(F)F)c2)cc1Nc1nc(-c2cccnc2)nc2c1cnn2C", "answerLabel": 1}
{"molecule": "O=C(O)c1c(Cl)c(Cl)c(Cl)c(Cl)c1-c1c2cc(I)c(=O)c(I)c-2oc2c(I)c(O)c(I)cc12", "answerLabel": 1}
{"molecule": "N[C@H](CSC(c1ccccc1)(c1ccccc1)c1ccccc1)C(=O)O", "answerLabel": 1}
{"molecule": "CNC(=O)c1ccccc1Sc1ccc2c(C=Cc3ccccn3)n[nH]c2c1", "answerLabel": 1}
{"molecule": "CN1CCN(CCOc2cc(OC3CCOCC3)c3c(Nc4c(Cl)ccc5c4OCO5)ncnc3c2)CC1", "answerLabel": 1}
{"molecule": "Clc1ccc(C(c2ccc(Cl)cc2)n2cc[n+](CC(OCc3ccc(Cl)cc3Cl)c3ccc(Cl)cc3Cl)c2)cc1 (centres undefined)", "answerLabel": 1}
{"molecule": "C[N+]1(C)[C@@H]2CC(OC(=O)[C@H](CO)c3ccccc3)C[C@H]1[C@H]1O[C@@H]12 (some centres undefined)", "answerLabel": -1}

---

experimentalDetails: Quantitative High-Throughput drug screen in 47 multiple myeloma cell lines against the NCATS MIPE library collection: ARD_JJKsccE7 cell viability assay (AID 1918929;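 for viability: 100% = DMSO-only wells and 0% = media-only wells without cells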)
reportedConditions: ARD myeloma cell line viability, CellTiter-Glo, 48 h; series mostly up to 45.8 µM
Results filed as inconclusive are left out. Calls of active or inactive are those of the source. The call rests on the fitted dose curve; in most records, active means well fitted cell-killing curve with a large enough effect; inconclusive means small, poorly fitted or top-dose-only effect, or effect the other way; inactive means no such curve, though single readings can be large or run the other way.
Labels: active, inactive

{"compound": "CC=C(C)C(=O)O[C@H]1C(C)=C[C@]23C(=O)[C@@H](C=C(CO)[C@@H](O)[C@]12O)[C@H]1[C@@H](C[C@H]3C)C1(C)C", "answerLabel": "active"}
{"compound": "O=C1NC(=O)C(=Cc2ccc3c(c2)OC(F)(F)O3)S1", "answerLabel": "active"}
{"compound": "COc1ccc(C2CC(c3ccccc3)=NN2c2ccc(S(N)(=O)=O)cc2)cc1 (centres undefined)", "answerLabel": "active"}
{"compound": "O=C(O)c1cc(O)c2c(c1)C(=O)c1cccc(O)c1C2=O", "answerLabel": "inactive"}
{"compound": "O=c1cc(-c2ccccc2)oc2cc(O)c(O)c(O)c12", "answerLabel": "inactive"}
{"compound": "CN1CCN(CCOc2cc(OC3CCOCC3)c3c(Nc4c(Cl)ccc5c4OCO5)ncnc3c2)CC1", "answerLabel": "active"}
{"compound": "O=C(O)c1ccc(-c2c[nH]c3ncc(-c4ccccc4)cc23)cc1C1CCCC1", "answerLabel": "active"}
{"compound": "NC1CCC(Nc2nc(Nc3ccc(C(=O)N4CCCCC4)cc3)c3ncn(-c4cccc(F)c4)c3n2)CC1 (centres undefined)", "answerLabel": "inactive"}
{"compound": "COc1cc2ncnc(Nc3ccc(F)c(Cl)c3)c2cc1OCCCN1CCOCC1", "answerLabel": "active"}

---

experimentalDetails: Quantitative High-Throughput drug screen in 47 multiple myeloma cell lines against the NCATS MIPE library collection: JIM1_ECACC cell viability assay (AID 1918964)
reportedConditions: JIM1 myeloma viability, CellTiter-Glo ATP luminescence, 48 h; series mostly up to 45.8 µM
Text: PI: Beverly A. Mock Ph.D. Laboratory of Cancer Biology and Genetics, Center for Cancer Research, National Cancer Institute, National Institute of Health, Bethesda, Maryland […] 5; Detector; 425V; Luminescence; Viewlux PerkinElmer. […] 1. […] Briefly, the corresponding myeloma cell lines were screened in 1,536-well plates with 500 cells, 5-uL per well for inhibition of cell viability (assessed by measuring ATP levels with CellTiterGlo). […]
Inconclusive results are not listed. The source made the active and inactive calls. The call rests on the fitted dose curve; in most records, active means well fitted cell-killing curve with a large enough effect; inconclusive means small, poorly fitted or top-dose-only effect, or effect the other way; inactive means no such curve, though single readings can be large or run the other way.
Classes used: 1 (active), 0 (inactive)

{"compound": "COc1ccc(-c2nc(N3CCOCC3)c3sc(CN(C)c4ncc(C(=O)NO)cn4)cc3n2)cn1", "answerLabel": 1}
{"compound": "COc1cc(N2CCC(N3CCN(C)CC3)CC2)ccc1Nc1ncnc(Nc2ccccc2S(=O)(=O)C(C)C)n1", "answerLabel": 0}
{"compound": "CN(C)CCC=C1c2ccccc2COc2ccc(CC(=O)O)cc21", "answerLabel": 0}
{"compound": "COCCOc1nc(-c2ccc(Cl)c(Cl)c2)n(-c2ccc(NC(=O)CCl)cc2)n1", "answerLabel": 1}
{"compound": "O=C(Nc1cccc(Br)c1)c1cccc(S(=O)(=O)N2CCCCCC2)c1", "answerLabel": 1}
{"compound": "CO[C@@H](C(=O)N1Cc2[nH]nc(NC(=O)c3ccc(N4CCN(C)CC4)cc3)c2C1)c1ccccc1", "answerLabel": 1}
{"compound": "CN1CCN(CCOc2cc(OC3CCOCC3)c3c(Nc4c(Cl)ccc5c4OCO5)ncnc3c2)CC1", "answerLabel": 1}
{"compound": "Oc1ccc(C2=Cc3ccc(O)cc3OC2)cc1", "answerLabel": 1}
{"compound": "COC1CCC(N(C(=O)C2CCC(C)CC2)c2cc(C3=CCCCC3)sc2C(=O)O)CC1 (stereo not given)", "answerLabel": 0}
{"compound": "CC(=O)Nc1ccc([C@H](C)C(=O)Nc2ncc(C(C)C)s2)cc1", "answerLabel": 1}
